Test protocol: Rat plasma kinetics after intraperitoneal injection
Assay type: in vivo
Assay conditions: male, Long-Evans, rat, plasma, ip, 3 mg/kg
Attribute: AUC(0-inf)

{"Smiles input": "CCCCCn1cc(C(=O)NC(C)(C)c2ccccc2)c2ccccc21", "AUC(0-inf) (ng·h/mL)": 1210}
{"Smiles input": "CC(C)(NC(=O)c1cn(CCCCCF)c2ccccc12)c1ccccc1", "AUC(0-inf) (ng·h/mL)": 843}

----------
Test protocol: Rat plasma kinetics after intraperitoneal injection
Assay type: in vivo
Assay conditions: male, Long-Evans, rat, plasma, ip, 3 mg/kg
Entries annotated with measured Cmax

{"Smiles input": "CC(C)(NC(=O)c1cn(CCCCCF)c2ccccc12)c1ccccc1", "Result units": "ng/mL", "Cmax": 65.2}
{"Smiles input": "CCCCCn1cc(C(=O)NC(C)(C)c2ccccc2)c2ccccc21", "Result units": "ng/mL", "Cmax": 130}

----------
Test protocol: Rat plasma kinetics after intraperitoneal injection
Type: in vivo
Assay conditions: male, Long-Evans, rat, plasma, ip, 3 mg/kg
Quantity name: AUC(0-t) (ng·h/mL)

{"Smiles input": "CC(C)(NC(=O)c1cn(CCCCCF)c2ccccc12)c1ccccc1", "Experimental result": 582}
{"Smiles input": "CCCCCn1cc(C(=O)NC(C)(C)c2ccccc2)c2ccccc21", "Experimental result": 1090}

----------
Test protocol: Clearance in rat liver microsome incubation
Format: in vitro ADME
Assay conditions: male, Sprague-Dawley, rat, pooled rat liver microsomes, pH 7.4
Overview of recorded microsomal CLint at 1 µM for various compounds

{"Smiles input": "CCCCCn1cc(C(=O)NC(C)(C)c2ccccc2)c2ccccc21", "microsomal CLint at 1 µM / µL/min/mg": 310}
{"Smiles input": "CC(C)(NC(=O)c1cn(CCCCCF)c2ccccc12)c1ccccc1", "microsomal CLint at 1 µM / µL/min/mg": 580}

----------
Test protocol: Clearance in human liver microsome incubation
Format: in vitro ADME
Assay conditions: male, human, pooled human liver microsomes, pH 7.4
Quantity name: microsomal CLint at 1 µM (µL/min/mg)

{"Smiles input": "CC(C)(NC(=O)c1cn(CCCCCF)c2ccccc12)c1ccccc1", "Result units": "µL/min/mg", "Experimental result": 390}

----------
half-life at 1 µM by entry:
Test protocol: Clearance in human liver microsome incubation
Type: in vitro ADME
Assay conditions: male, human, pooled human liver microsomes, pH 7.4
Quantity name: half-life at 1 µM (min)

{"Smiles input": "CCCCCn1cc(C(=O)NC(C)(C)c2ccccc2)c2ccccc21", "Experimental result": 5.92}
{"Smiles input": "CC(C)(NC(=O)c1cn(CCCCCF)c2ccccc12)c1ccccc1", "Experimental result": 1.77}
